Provenance of the data: ChEMBL document CHEMBL5380795

Below, each of the compounds is paired with its reported MIC value.
system: Staphylococcus epidermidis; experiment: Antibacterial activity against methicillin resistant Staphylococcus epidermidis clinical isolate 19-5 assessed as inhibition of bacterial growth incubated for 18 to 24 hrs by broth microdilution method; assay type: functional; conditions: time 18-24 hrs
Please respond with the number in µg/mL and leave the unit unwritten.

The cases that follow already have their MIC on record.
Fill in the blank: the reported MIC of CCCCCCCCCC(=O)N[C@H](CCN)C(=O)N[C@H]1CCNC(=O)[C@H](CO)NC(=O)[C@H](CCN)NC(=O)[C@H](CCN)NC(=O)[C@H](Cc2ccccc2)NC(=O)[C@@H](CC(C)C)NC(=O)[C@H](CCN)NC1=O is ____.
4

Fill in the blank: the reported MIC of CCCCCCCCCC(=O)N[C@H](CCN)C(=O)N[C@H]1CCNC(=O)[C@H]([C@@H](C)O)NC(=O)[C@H](CCN)NC(=O)[C@H](CCN)NC(=O)[C@H](CC(C)C)NC(=O)[C@@H](Cc2ccc(C(C)(C)C)cc2)NC(=O)[C@H](CCN)NC1=O is ____.
0.5

Now for a further compound.
Fill in the blank: the reported MIC of CCCCCCC[C@H](O)CC(=O)N[C@H](CCN)C(=O)N[C@H]1CCNC(=O)[C@H](CC(C)C)NC(=O)[C@H](CCN)NC(=O)[C@H](CCN)NC(=O)[C@H](CC(C)C)NC(=O)[C@@H](CC(C)C)NC(=O)[C@H](CCN)NC1=O is ____.
2

* * *

assay: Selectivity index, ratio of IC50 for cytotoxicity against human HK-2 cells to MIC for antibacterial activity against Escherichia coli ATCC BAA-2523; type: toxicity, cell-based
Below, each of the molecules is paired with its reported selectivity ratio value.
Write no unit; give the number alone.

The cases that follow already have their selectivity ratio on record.
Fill in the blank: the reported selectivity ratio of CCCCCCC[C@@H](O)CC(=O)N[C@H](CCN)C(=O)N[C@H]1CCNC(=O)[C@H]([C@@H](C)O)NC(=O)[C@H](CCN)NC(=O)[C@H](CCN)NC(=O)[C@H](CC(C)C)NC(=O)[C@@H](CC(C)C)NC(=O)[C@H](CCN)NC1=O is ____.
51.5

Fill in the blank: the reported selectivity ratio of CCCCCCC[C@H](O)CC(=O)N[C@H](CCN)C(=O)N[C@H]1CCNC(=O)[C@H](CC(C)C)NC(=O)[C@H](CCN)NC(=O)[C@H](CCN)NC(=O)[C@H](CC(C)C)NC(=O)[C@@H](CC(C)C)NC(=O)[C@H](CCN)NC1=O is ____.
19.4

Now for a further molecule.
Fill in the blank: the reported selectivity ratio of CCCCCCCCCC(=O)N[C@H](CCN)C(=O)N[C@H]1CCNC(=O)[C@H]([C@@H](C)O)NC(=O)[C@H](CCN)NC(=O)[C@H](CCN)NC(=O)[C@H](CCCCCCCC)NC(=O)[C@@H](CC(C)C)NC(=O)[C@H](CCN)NC1=O is ____.
9.1

* * *

Below, each of the molecules is paired with its reported MIC value.
system: Escherichia coli; experiment: Antibacterial activity against KPC producing Escherichia coli ATCC BAA-2340 assessed as inhibition of bacterial growth incubated for 18 to 24 hrs by broth microdilution method; format: functional; conditions: time 18-24 hrs
Please respond with the number in µg/mL and leave the unit unwritten.

Fill in the blank: the reported MIC of CC(C)C[C@@H]1NC(=O)[C@@H](CC(C)C)NC(=O)[C@H](CCN)NC(=O)[C@@H](NC(=O)[C@@H](CCN)NC(=O)CCCCCc2ccccc2)CCNC(=O)[C@H]([C@@H](C)O)NC(=O)[C@H](CCN)NC(=O)[C@H](CCN)NC1=O is ____.
8

Now for a further molecule.
Fill in the blank: the reported MIC of CC(C)C[C@@H]1NC(=O)[C@@H](CC(C)C)NC(=O)[C@H](CCN)NC(=O)[C@@H](NC(=O)[C@@H](CCN)NC(=O)CCCCCC(C)(C)C)CCNC(=O)[C@H]([C@@H](C)O)NC(=O)[C@H](CCN)NC(=O)[C@H](CCN)NC1=O is ____.
16

* * *

system: Pseudomonas aeruginosa; experiment: Antibacterial activity against carbapenem resistant Pseudomonas aeruginosa clinical isolate 19-3 assessed as inhibition of bacterial growth incubated for 18 to 24 hrs by broth microdilution method; assay type: functional; settings: time 18-24 hrs
observation.type: MIC (µg/mL)
Please respond with the number in µg/mL and leave the unit unwritten.

Fill in the blank: the reported MIC of CCCCCCCCCC(=O)N[C@H](CCN)C(=O)N[C@H]1CCNC(=O)[C@H]([C@@H](C)O)NC(=O)[C@H](CCN)NC(=O)[C@H](CCN)NC(=O)[C@H](CC(C)C)NC(=O)[C@@H](Cc2ccccc2Cl)NC(=O)[C@H](CCN)NC1=O is ____.
2

Fill in the blank: the reported MIC of CCCCCCCCCC(=O)N[C@H](CCN)C(=O)N[C@H]1CCNC(=O)[C@H]([C@@H](C)O)NC(=O)[C@H](CCN)NC(=O)[C@H](CCN)NC(=O)[C@H](CC(C)C)NC(=O)[C@@H](Cc2ccc(Cl)cc2)NC(=O)[C@H](CCN)NC1=O is ____.
0.5

Fill in the blank: the reported MIC of CCCCCCCCCC(=O)N[C@@H](C(=O)N[C@H]1CCNC(=O)[C@H]([C@@H](C)O)NC(=O)[C@H](CCN)NC(=O)[C@H](CCN)NC(=O)[C@H](CC(C)C)NC(=O)[C@@H](CC(C)C)NC(=O)[C@H](CCN)NC1=O)[C@H](C)O is ____.
32

Fill in the blank: the reported MIC of CCCCCCCCCC(=O)N[C@H](CCN)C(=O)N[C@H]1CCNC(=O)[C@H]([C@@H](C)O)NC(=O)[C@H](CCN)NC(=O)[C@H](CCN)NC(=O)[C@H](CCCCCCCC)NC(=O)[C@@H](CC(C)C)NC(=O)[C@H](CCN)NC1=O is ____.
2

* * *

test system: Escherichia coli; assay: Antibacterial activity against KPC producing Escherichia coli ATCC BAA-2340 assessed as inhibition of bacterial growth incubated for 18 to 24 hrs by broth microdilution method; type: functional; settings: time 18-24 hrs
Below, each of the compounds is paired with its reported MIC value.
Please respond with the number in µg/mL and leave the unit unwritten.

The cases that follow already have their MIC on record.
Request body: readout MIC, system Escherichia coli, query CCCCCCCCC(=O)N[C@H](CCN)C(=O)N[C@H]1CCNC(=O)[C@H](CC(C)C)NC(=O)[C@H](CCN)NC(=O)[C@H](CCN)NC(=O)[C@H](CC(C)C)NC(=O)[C@@H](CC(C)C)NC(=O)[C@H](CCN)NC1=O . Return the value.
2

Request body: readout MIC, system Escherichia coli, query CCCCCCC[C@@H](O)CC(=O)N[C@H](CCN)C(=O)N[C@H]1CCNC(=O)[C@H](CC(C)C)NC(=O)[C@H](CCN)NC(=O)[C@H](CCN)NC(=O)[C@H](CC(C)C)NC(=O)[C@@H](CC(C)C)NC(=O)[C@H](CCN)NC1=O . Return the value.
8

Request body: readout MIC, system Escherichia coli, query CCCCCCC[C@@H](O)CC(=O)N[C@H](CCN)C(=O)N[C@H]1CCNC(=O)[C@H]([C@@H](C)O)NC(=O)[C@H](CCN)NC(=O)[C@H](CCN)NC(=O)[C@H](CC(C)C)NC(=O)[C@@H](CC(C)C)NC(=O)[C@H](CCN)NC1=O . Return the value.
8

Now for a further compound.
Request body: readout MIC, system Escherichia coli, query CCCCCCCCCC(=O)N[C@H](CCN)C(=O)N[C@H]1CCNC(=O)[C@H]([C@@H](C)O)NC(=O)[C@H](CCN)NC(=O)[C@H](CCN)NC(=O)[C@H](CC(C)C)NC(=O)[C@@H](Cc2ccc(Cl)cc2)NC(=O)[C@H](CCN)NC1=O . Return the value.
1

* * *

Below, each of the compounds is paired with its reported MIC value.
system: Escherichia coli; assay: Antibacterial activity against KPC producing Escherichia coli ATCC BAA-2340 assessed as inhibition of bacterial growth incubated for 18 to 24 hrs by broth microdilution method; assay type: functional; settings: time 18-24 hrs
Bridge positions count the residues as written; N and C are the ends. Square brackets hold non-standard residues; d marks the D form. Peptide text beside a SMILES is read from it. * marks the point of attachment. Decanoyl(3R-OH) = CCCCCCC[C@@H](O)CC(=O)*; dDab = NCC[C@@H](N)C(=O)O; Dab = NCC[C@H](N)C(=O)O
Please respond with the number in µg/mL and leave the unit unwritten.

Fill in the blank: the reported MIC of CCCCCCCCCC(=O)N[C@H](CCN)C(=O)N[C@H]1CCNC(=O)[C@H]([C@@H](C)O)NC(=O)[C@H](CCN)NC(=O)[C@H](CCN)NC(=O)[C@H](CC(C)C)NC(=O)[C@@H](Cc2ccc(N)cc2)NC(=O)[C@H](CCN)NC1=O is ____.
64

Fill in the blank: the reported MIC of CCCCCCC[C@@H](O)CC(=O)N[C@H](CCN)C(=O)N[C@H]1CCNC(=O)[C@H]([C@@H](C)O)NC(=O)[C@H](CCN)NC(=O)[C@H](CCN)NC(=O)[C@H](CC(C)C)NC(=O)[C@@H](Cc2ccccc2)NC(=O)[C@H](CCN)NC1=O ({Decanoyl(3R-OH)}-[dDab][Dab][Dab][dF]L[Dab][Dab]T; lactam 2-C) is ____.
1

Fill in the blank: the reported MIC of CCCCCCCCCC(=O)N[C@H](CCN)C(=O)N[C@H]1CCNC(=O)[C@H](Cc2ccccc2)NC(=O)[C@H](CCN)NC(=O)[C@H](CCN)NC(=O)[C@H](Cc2ccccc2)NC(=O)[C@@H](CC(C)C)NC(=O)[C@H](CCN)NC1=O is ____.
8

Fill in the blank: the reported MIC of CCCCCCCCCC(=O)N[C@H](CCN)C(=O)N[C@H]1CCCNC(=O)[C@H]([C@@H](C)O)NC(=O)[C@H](CCN)NC(=O)[C@H](CCN)NC(=O)[C@H](CC(C)C)NC(=O)[C@@H](CC(C)C)NC(=O)[C@H](CCN)NC1=O is ____.
16

Fill in the blank: the reported MIC of CCCCCCC[C@@H](O)CC(=O)N[C@H](CCN)C(=O)N[C@H]1CCNC(=O)[C@H]([C@@H](C)O)NC(=O)[C@H](CCN)NC(=O)[C@H](CCN)NC(=O)[C@H]([C@@H](C)O)NC(=O)[C@@H](CC(C)C)NC(=O)[C@H](CCN)NC1=O is ____.
4
